- System: U2OS
- method-notes: Multiplex assay against U2OS
- Assay type: toxicity, cell-based
- assay-context: human, 12 h, 1 µM, compound concentration 1 uM, replicate 1
Use 8% as the dividing line for Population Fragmented Nuclei (%), with the line itself on the met side and lower values as not met.

> print(dat)
                                    compound      cat
 1  Cl.Cn1c2c(c3ccc(Cl)c(Cl)c31)C(C#N)C1(CCNCC1)NC2=O (centres undefined)  not met
 2  Cl.NC[C@@H]1O[C@H](C23CC4CC(CC(C4)C2)C3)Cc2c1ccc(O)c2O      met
 3  Cc1c(P(=S)(c2ccccc2)c2ccccc2)n2ccccc2[n+]1C/C=C/c1ccccc1.[Br-]      met
 4  Cc1ccc(NC(=O)Nc2cc(C(F)(F)F)ccc2F)cc1Nc1ccc2c(c1)NC(=O)/C2=C\c1ccc[nH]1      met
 5  CCCCCNC(=N)N/N=C/c1c[nH]c2ccc(OC)cc12.O=C(O)/C=C\C(=O)O [TEGASEROD MALEATE]      met
 6  c1ccc(-c2oc3ncnc(NC[C@@H]4CCCO4)c3c2-c2ccccc2)cc1  not met
 7  CC[C@@H]1C(=O)N(C)c2cnc(Nc3ccc(C(=O)NC4CCN(C)CC4)cc3OC)nc2N1C1CCCC1      met
 8  Cc1ccc(S(=O)(=O)NC2c3ccccc3Oc3ccccc32)cc1      met
 9  CCOC(=O)CCNc1cc(N2CCc3ccccc3CC2)nc(-c2ccccn2)n1  not met
10  CN1C(=O)[C@@H](NC(=O)c2cc3ccccc3[nH]2)N=C(c2ccccc2)c2ccccc21 [DEVAZEPIDE]      met
11  Cc1c(Nc2ccc(S(=O)(=O)N3CCN(C)CC3)cc2F)nc2ccc(-c3cnn(C4CC4)c3)cn2c1=O  not met
12  N#CCNC(=O)c1ccc(-c2ccnc(Nc3ccc(N4CCOCC4)cc3)n2)cc1      met
13  CC[C@H](Nc1ncnc2[nH]cnc12)c1nc2cccc(F)c2c(=O)n1-c1ccccc1  not met
14  CCCc1cc(C)[nH]c(=O)c1CNC(=O)c1cc(-c2ccc(N3CCN(C(C)C)CC3)nc2)cc2c1cnn2C(C)C      met
15  CC(C)[C@H](CO)Nc1nc(Nc2cccc(Cl)c2)c2ncn(C(C)C)c2n1      met
16  Oc1cccc(-c2nc(N3CCOCC3)c3oc4ncccc4c3n2)c1      met
17  CN(c1cc(C(F)(F)F)nc(OCCC(=O)O)n1)c1cccc2c1CCC2      met
18  Cc1c(Nc2ccc(S(=O)(=O)N3CCN(C)CC3)cc2F)nc2ccc(Nc3cnn(C4CC4)c3)cn2c1=O  not met
19  N#Cc1cccc(C(=O)Nc2cc(-c3ccccc3)nn2-c2ccccc2)c1      met
20  C[C@@H](Oc1cc(-n2cnc3ccc(CN4CCN(C)CC4)cc32)sc1C(N)=O)c1ccccc1C(F)(F)F      met
21  CC(Cc1ccc(O)c(O)c1)C(C)Cc1ccc(O)c(O)c1 (centres undefined) [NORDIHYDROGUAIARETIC ACID]      met
22  C=CC(=O)Nc1cc(-n2c(=O)ccc3cnc4ccc(-c5ccc(NS(C)(=O)=O)cc5)cc4c32)ccc1C  not met
